System: CP329
assay_comment: qHTS profiling for inhibitors of Plasmodium falciparum proliferation (AID 504749); further: nearly all actives have a fitted effect of over 60% in size
experimental_parameters: P. falciparum in erythrocytes, SYBR Green DNA, 72 h; series mostly up to 28.7 µM
Inconclusive results are not listed. The source made the active and inactive calls. The call rests on the fitted dose curve; in most records, active means well fitted inhibition curve with a large enough effect; inconclusive means small, poorly fitted or top-dose-only effect; inactive means flat fitted curve, though single readings scatter.
Your answer must be one of the following: active, inactive

Study these solved cases before continuing.
> print(dat)
                                   molecule  class.assignment
1  Cc1cn([C@H]2C=C[C@@H](CO)O2)c(=O)[nH]c1=O          inactive
2  CC(C)(Oc1ccc(C2CC2(Cl)Cl)cc1)C(=O)O (stereo unspecified)          inactive
3    Clc1ccccc1C(c1ccccc1)(c1ccccc1)n1ccnc1            active

Test call for this molecule, please: CC(CCc1ccc(O)cc1)NCCc1ccc(O)c(O)c1 (stereo unspecified)
inactive

Test call for this molecule, please: `CC(C)(C)C(=O)Oc1ccc(S(=O)(=O)Nc2ccccc2C(=O)NCC(=O)O)cc1`
inactive

Test call for this molecule, please: `Clc1ccc2c(c1)C(N1CCNCC1)=Nc1ccccc1O2`
inactive

====

The entries below are paired with their reported activity, negative = cell killing.
assay_comment: Drug repurposing screens with cells derived from glioblastoma tumor samples (AID 1345199); further: on the % scale 0 is the no-effect control and ±100 the full control effect; nearly all actives have a fitted effect of over 40% in size
experimental_parameters: GBM patient neurospheres viability, ATP luminescence, 48 h; at 46.1 µM (top of the series); tumour line C
Protocol: CD133+ cells were isolated from GBM patient biopsies and cultured as neurospheres. Neurospheres from four patients were used to screen the NCATS pharmaceutical collection (NPC) library of approved drugs and bioactive compounds. […] The neurospheres were incubated with drugs for 48 hours in 1536-well format, then assayed with an ATP content cell viability assay. […]
Inconclusive results are not listed.
Please state the figure in %; there is no need to write the unit.

> print(dat)
                                    compound  unit.spec  quantitative.readout
 1        NS(=O)(=O)c1cc2c(cc1Cl)NCNS2(=O)=O          %                 -21.1
 2  CC1(C)O[C@H]2CC(=O)OC[C@]23[C@H]2CC[C@@]4(C)[C@H](c5ccoc5)OC(=O)[C@H]5O[C@]54[C@]2(C)C(=O)C[C@@H]13          %                  3.51
 3  CN1CCN2c3ccccc3Cc3ccccc3C2C1 (configuration not stated)          %                 -2.24
 4                             NCCS(=O)(=O)O          %                 -20.3
 5  COc1ccc2c(c1)c(CC(=O)O)c(C)n2C(=O)c1ccc(Cl)cc1          %                 -12.3
 6                             NCCc1cnc[nH]1          %                 0.797
 7  OCCN1CCN(CCCN2c3ccccc3Sc3ccc(C(F)(F)F)cc32)CC1          %                 -28.6
 8                                  NC(=O)NO          %                 -11.2
 9  CCC1(C)CC(=O)NC1=O (configuration not stated)          %                 -11.1
10  CCCNCC(O)COc1ccccc1C(=O)CCc1ccccc1 (configuration not stated)          %                  27.1

Kindly note the recorded activity, negative = cell killing for `CS(=O)(=O)CCNCc1ccc(-c2ccc3ncnc(Nc4ccc(OCc5cccc(F)c5)c(Cl)c4)c3c2)o1` , which is -22.4

Kindly note the recorded activity, negative = cell killing for `O=c1[nH]cc(F)c(=O)[nH]1` , which is -29.9
